system: human liver microsomes, metabolic stability half-life; assay: NCATS Human Liver Microsomal (HLM) Stability Profiling; conditions: higher = more stable; screened at 1 µM (by protocol)
OBSERVABLE: half-life (min)
The response must be a number in min with no trailing unit.

Recorded results for 5 compounds are shown here.
[[record]]
compound = "N#Cc1cccc(CN2CCOC[C@H]2c2ncc(-c3ccc(F)cc3)[nH]2)c1"
unit_string = "min"
measurement = 3.38

[[record]]
compound = "O=C(c1ccccn1)N(Cc1cccs1)C1(C(=O)NC2CCCCC2)CCCCC1"
unit_string = "min"
measurement = 1.6

[[record]]
compound = "CCN1CCc2nc(N)oc2CC1"
unit_string = "min"
measurement = 112

[[record]]
compound = "CCOC(=O)[C@H](CCc1ccccc1)N[C@H]1CCc2ccccc2N(CC(=O)O)C1=O"
unit_string = "min"
measurement = 18.6

[[record]]
compound = "COP(=S)(OC)Oc1ccc(SC)c(C)c1"
unit_string = "min"
measurement = 4.44


Please report half-life with human liver microsomes, metabolic stability half-life for item CCOP(=S)(OCC)O/N=C(\C#N)c1ccccc1 .
8.67

Please report half-life with human liver microsomes, metabolic stability half-life for item COc1cc2c(Nc3ccc(Cl)c(Cl)c3F)ncnc2cc1OCC1C[C@@H]2CN(C)C[C@@H]2C1 (some centres undefined) .
61.9

Please report half-life with human liver microsomes, metabolic stability half-life for item COc1cc(N2CCOCC2)ccc1NC(=O)c1csc(-c2cccnc2)n1 .
30.2

Please report half-life with human liver microsomes, metabolic stability half-life for item CCn1ccnc1C[C@@H]1COc2ccccc2O1 .
55.3

Please report half-life with human liver microsomes, metabolic stability half-life for item CC(C)(C)C(=O)OCOP(=O)(COCCn1cnc2c(N)ncnc21)OCOC(=O)C(C)(C)C .
3.13

Please report half-life with human liver microsomes, metabolic stability half-life for item Cc1nn2c(c1-c1ccccc1Oc1ccccc1)N(Cc1ccc(C(=O)O)cc1)CCC2 .
6.19

Please report half-life with human liver microsomes, metabolic stability half-life for item Cc1cc2c(F)c(Oc3ncnn4cc(OCC(C)OC(=O)C(C)N)c(C)c34)ccc2[nH]1 (centres undefined) .
1.26

Please report half-life with human liver microsomes, metabolic stability half-life for item Cc1cc(OCc2nnc(SC3CCCC3)n2-c2cccnc2)ccc1-c1ccc(S(C)(=O)=O)cc1 .
1.66

Please report half-life with human liver microsomes, metabolic stability half-life for item Cc1ccc(C)c(N2CCN(CCCNC(=O)c3ccc4nc(C(C)C)oc4c3)CC2)c1 .
13.8

Please report half-life with human liver microsomes, metabolic stability half-life for item CN(C)C(CCOc1cccc2ccccc12)c1ccccc1 (centres undefined) .
12.8

Please report half-life with human liver microsomes, metabolic stability half-life for item O=C(CCNc1c(-c2ccccc2)nc2cnccn12)N1CCCC1 .
7.99

Please report half-life with human liver microsomes, metabolic stability half-life for item Oc1ccccc1-c1nnco1 .
43.3

Please report half-life with human liver microsomes, metabolic stability half-life for item c1ccc(OCc2ccc(CCCN3CCOCC3)cc2)cc1 .
26.7

Please report half-life with human liver microsomes, metabolic stability half-life for item CCOC(=O)c1ccc(Nc2nc3nonc3nc2Nc2cccc(C)c2C)cc1 .
10.7

---

test system: human liver microsomes, metabolic stability half-life; experiment: NCATS Human Liver Microsomal (HLM) Stability Profiling; conditions: higher = more stable; screened at 1 µM (by protocol)
Output T for half-life not less than 8 min; output F otherwise.

# example entries with known answers
[[record]]
compound = "CN(C)CC#CCCC(=O)C(O)(c1ccccc1)C1CCC1 (stereo unspecified)"
class_label = "T"

[[record]]
compound = "CCOCCCNC(=O)CCC(=O)NNc1nc2ccccc2c2nc(-c3ccccc3)nn12"
class_label = "T"

[[record]]
compound = "COCCn1c(SCC(=O)Nc2ccc(F)c(Cl)c2)nc2c(oc3ccccc32)c1=O"
class_label = "F"

[[record]]
compound = "COC(=O)/C=C(\\C)OP(=O)(OC)OC"
class_label = "T"


Answer whether half-life of CC1=C(c2ccc(NC(=O)c3c(F)cccc3F)cc2)CN(c2nccs2)CC1 is greater than or equal to 8 min.
T

Answer whether half-life of N#Cc1cccc(C(=O)Nc2cc(-c3ccccc3)nn2-c2ccccc2)c1 is greater than or equal to 8 min.
T

Answer whether half-life of COc1ccc(CCO[C@@H]2CCCC[C@H]2N2CC[C@@H](O)C2)cc1OC is greater than or equal to 8 min.
T

Answer whether half-life of CCOC(=O)Nc1ccc(NCc2ccc(F)cc2)cc1N is greater than or equal to 8 min.
T

Answer whether half-life of C=CCOC1=C(OCC(O)CNC(C)C)CCCC1 (stereo unspecified) is greater than or equal to 8 min.
T

---

Below, each entry is listed with its recorded half-life.
tested on: human liver microsomes, metabolic stability half-life; experiment: NCATS Human Liver Microsomal (HLM) Stability Profiling; conditions: higher = more stable; screened at 1 µM (by protocol)
The response must be a number in min with no trailing unit.

Recorded results for 2 compounds are shown here.
[[record]]
compound = "CC1CC(C)(C)N(C(=O)CN2C(=O)c3ccccc3C2=O)c2ccccc21 (stereo unspecified)"
measurement = 8.38

[[record]]
compound = "CCCCNc1c(C(=O)OCC)c(C)nc2c1cnn2CC"
measurement = 5.85


Give half-life for the following compound: COc1ccc(N(C(=O)Nc2c(C)cccc2C)c2cc(Nc3ccc(N4CCN(C)CC4)cc3)ncn2)c(OC)c1
17.1

---

system: human liver microsomes, metabolic stability half-life; assay: NCATS Human Liver Microsomal (HLM) Stability Profiling; settings: higher = more stable; screened at 1 µM (by protocol)
Below, each entry is listed with its recorded log10(half-life).
Hi team, quick reminder: these entries are log10 of half-life (min).

Recorded results for 5 compounds are shown here.
[[record]]
smiles_entry = "O=C(c1cnn(-c2cccc(F)c2)c1-n1cccc1)N1CCN(c2ccccc2F)CC1"
measurement = 0.97

[[record]]
smiles_entry = "C[C@]12Cc3cn[nH]c3C[C@@H]1CC[C@@H]1[C@@H]2CC[C@@]2(C)[C@H]1CC[C@]2(C)O"
measurement = 1.38

[[record]]
smiles_entry = "CC(=O)N1CCN([C@H]2CCN(C(=O)N(C)[C@H](C)c3cc(C(F)(F)F)cc(C(F)(F)F)c3)[C@@H](c3ccc(F)cc3C)C2)CC1"
measurement = 1.11

[[record]]
smiles_entry = "O=C(O)COC(=O)Cc1ccccc1Nc1c(Cl)cccc1Cl"
measurement = 0.45

[[record]]
smiles_entry = "O=c1cc(N2CCOCC2)oc2c(-c3cccc(F)c3)nccc12"
measurement = 1.54


# input for lookup
Give log10(half-life) for the following compound: C=CC(=O)Nc1cccc(CN2C(=O)N(c3c(Cl)c(OC)cc(OC)c3Cl)Cc3cnc(NCCCCN(CC)CC)nc32)c1
1.63

---

Below, each entry is listed with its recorded log10 of half-life.
test system: human liver microsomes, metabolic stability half-life; experiment: NCATS Human Liver Microsomal (HLM) Stability Profiling; conditions: higher = more stable; screened at 1 µM (by protocol)
Hi team, quick reminder: these entries are log10 of half-life (min).

[[record]]
smiles_entry = "Cc1cc(C)c(-n2cc(C)c3c(Cl)nc(C)nc32)c(C)c1"
measurement = 1.00


Give log10 of half-life for the following compound: CC(=O)N1C[C@H](O)C[C@H]1C(=O)O
1.70

Give log10 of half-life for the following compound: Cc1ccc(C(=O)N2CCc3cc(CNS(=O)(=O)c4cccs4)ccc32)cc1
0.71

---

Below, each entry is listed with its recorded half-life.
system: human liver microsomes, metabolic stability half-life; assay: NCATS Human Liver Microsomal (HLM) Stability Profiling; settings: higher = more stable; screened at 1 µM (by protocol)
The response must be a number in min with no trailing unit.

Recorded results for 2 compounds are shown here.
[[record]]
smiles_entry = "COc1ccc2cc(OCC3(C(=O)O)CN(C(=O)c4ccc(F)cc4)C3)ccc2c1"
observable = "half-life"
measurement = 8.64

[[record]]
smiles_entry = "COc1cc(C(c2c(C)[nH][nH]c2=O)c2c(C)[nH][nH]c2=O)ccc1OC(=O)c1cccc(C)c1"
observable = "half-life"
measurement = 2.21


# input for lookup
Give half-life for the following compound: Cc1coc2c1C(=O)C(=O)c1c-2ccc2c1CCCC2(C)C
5.39

---

system: human liver microsomes, metabolic stability half-life; assay: NCATS Human Liver Microsomal (HLM) Stability Profiling; conditions: higher = more stable; screened at 1 µM (by protocol)
OBSERVABLE: half-life (min)
The response must be a number in min with no trailing unit.

Recorded results for 2 molecules are shown here.
[[record]]
molecule = "CCc1ccc(C(=O)C(C)CN2CCCCC2)cc1 (stereo unspecified)"
measurement = 4.87

[[record]]
molecule = "Cc1ccc(-c2ccccc2C#N)cc1"
measurement = 1


Give half-life for the following molecule: CC(C)c1ccc2oc(-c3ccc(NC(=O)c4cc5ccccc5o4)cc3)nc2c1
25.3

---

tested on: human liver microsomes, metabolic stability half-life; assay: NCATS Human Liver Microsomal (HLM) Stability Profiling; conditions: higher = more stable; screened at 1 µM (by protocol)
OBSERVABLE: half-life (min)
The response must be a number in min with no trailing unit.

Recorded results for 2 molecules are shown here.
[[record]]
molecule = "CN(C(=O)CN(CCO)CC(=O)N(C)C(C)(C)Cc1ccccc1)C(C)(C)Cc1ccccc1"
observable = "half-life"
measurement = 0.58

[[record]]
molecule = "CC(C)c1ccc(NC(=O)C(c2ccccc2)N(C)C(=O)Cc2c[nH]c3ccccc23)cc1 (stereo not given)"
observable = "half-life"
measurement = 7.38


Please report half-life with human liver microsomes, metabolic stability half-life for item NS(=O)(=O)c1cc2c(cc1Cl)NC(CSCc1ccccc1)=NS2(=O)=O .
29.2
